tested on: hepatocytes isolated from Wistar rat liver; assay: Test of inhibition of hepatic production of glucose (isolated hepatocytes, 3 h or 20 h incubation); assay type: cell-based; settings: Rattus norvegicus, Hepatocyte, 3 h, hepatic glucose production, rat hepatocytes, 3 h incubation, compound at 50 μM; read-out: HGP % of ctrl @ 50 μM
Parameter class (string): assigned from measured activity at 50 µM. Ranges: lo (below 70%), med (70% to below 90%), hi (90% or more)

Recorded results for 10 molecules are shown here.
CCOC(=O)Cc1cc(C(=O)c2ccccc2OC)sc1-c1ccc(OC)cc1 ... med
COc1ccc(C(=O)c2cc(CC(=O)O)c(-c3ccc(Cl)cc3)s2)cc1 ... med
CCOC(=O)Cc1cc(C(=O)c2ccc(Cl)cc2OC)sc1-c1ccc(Cl)cc1 ... lo
COc1ccc(-c2sc(C(=O)c3ccc(F)cc3F)cc2CC(=O)O)cc1 ... hi
COc1cccc(NC(=O)c2cc(CC(=O)OC(C)C)c(-c3ccc(Cl)cc3)s2)c1 ... lo
CCOC(=O)C(C)c1cc(C(=O)c2ccc(OC)cc2)sc1-c1ccc(Cl)cc1 (centres unmarked) ... hi
COC(=O)Cc1cc(C(=O)c2cccc(Cl)c2)sc1-c1ccccc1 ... med
CCOC(=O)Cc1cc(C(=O)CCc2ccccc2)sc1-c1ccc(Cl)cc1 ... med
CCOC(=O)Cc1cc(C(=O)c2ccc(OC)cc2)sc1-c1ccc(Cl)c(Cl)c1 ... hi
O=C(O)Cc1cc(C(=O)c2ccccc2)sc1-c1ccc(Cl)cc1 ... med

Problem: Exam item: assign COc1ccc(C(=O)c2cc(CC(=O)OC(C)C)c(-c3ccc(Cl)cc3)s2)cc1 to the correct category.
Solution: med

Problem: Entry to check: CCOC(=O)CN(C)C(=O)Cc1cc(C(=O)c2ccc(OC)cc2)sc1-c1ccccc1
Solution: med

Problem: And the next one, O=C(O)Cc1cc(C(=O)c2ccco2)sc1-c1ccc(Cl)cc1F ?
Solution: med

Problem: Same lookup for O=C(O)Cc1cc(C(=O)c2ccco2)sc1-c1ccc(Cl)c(Cl)c1 , please.
Solution: lo

Problem: Lookup CCON=C(c1ccc(Cl)c(Cl)c1)c1cc(CC(=O)O)c(-c2ccc(Cl)cc2)s1
Solution: lo

Problem: One more molecule: COc1ccc(C(=O)c2cc(CC(N)=O)c(-c3ccc(Cl)cc3)s2)cc1
Solution: med

Problem: Try the molecule O=C(c1ccco1)c1cc(Cc2noc(=O)[nH]2)c(-c2ccc(Cl)cc2)s1
Solution: hi

Problem: Next molecule: COc1cccc(C(=O)c2cc(CC(=O)O)c(-c3ccccc3)s2)c1
Solution: hi

Problem: Param item: COC(=O)Cc1cc(C(=O)c2ccccn2)sc1-c1ccc(Cl)cc1
Solution: med

Problem: Let us now turn to COc1ccc(S(=O)(=O)c2cc(CC(=O)O)c(-c3ccc(Cl)c(Cl)c3)s2)cc1
Solution: lo

###

test system: hepatocytes isolated from Wistar rat liver; test: Test of inhibition of hepatic production of glucose (isolated hepatocytes, 3 h or 20 h incubation); type: cell-based; details: Rattus norvegicus, Hepatocyte, 3 h, hepatic glucose production, rat hepatocytes, 3 h incubation, compound at 50 μM; read-out: HGP % of ctrl @ 50 μM
Counter-ions that a name gives are not always drawn.
assay-endpoint: activity at 50 µM
Reply with the number, then its unit.

CCOC(=O)Cc1cc(C(=O)c2ccc(OC)cc2)sc1-c1ccc(Cl)cc1 ... 84%

Can you give me activity at 50 µM for all of these, one by one?
1. COC(=O)Cc1cc(C(=O)c2ccc(OC)cc2)sc1-c1ccccc1
2. COc1ccc(-c2sc(C(=O)CCc3ccccc3)cc2CC(=O)O)cc1
3. CC(C)OC(=O)Cc1cc(C(=O)c2ccco2)sc1-c1ccc(Cl)cc1
4. COC(=O)Cc1cc(C(=O)c2ccccc2)sc1-c1ccccc1

Solution:
68%
83%
83%
84%

Batch of 7 molecules: report activity at 50 µM for each.
1. CCON=C(c1ccc(OC)cc1)c1cc(CC(=O)O)c(-c2ccc(Cl)cc2)s1
2. COc1ccc(C(=NO)c2cc(CC(=O)O)c(-c3ccc(Cl)cc3)s2)cc1
3. COc1ccc(C(=O)c2cc(CC(=O)O)c(-c3ccc(OC)cc3)s2)cc1
4. O=C(O)Cc1cc(C(=O)C2CCCCC2)sc1-c1ccc(Cl)cc1
5. COc1ccc(C(=O)c2cc(C(C)C(=O)O)c(-c3ccc(Cl)cc3)s2)cc1 (stereo not drawn)
6. O=C(O)Cc1cc(C(=O)c2ccc(Cl)c(Cl)c2)sc1-c1ccc(Cl)cc1
7. O=C(O)Cc1cc(C(=O)C2CCCCC2)sc1-c1ccccc1

Solution:
88%
69%
82%
78%
54%
77%
61%

Required: activity at 50 µM, one value per molecule below.
1. COc1cc(Cl)ccc1C(=O)c1cc(CC(=O)O)c(-c2ccc(Cl)cc2)s1
2. CCOC(=O)Cc1cc(C(=O)c2ccco2)sc1-c1ccc(Cl)c(Cl)c1
3. N=C(N)NC(=O)Cc1cc(C(=O)c2ccco2)sc1-c1ccc(Cl)cc1 [compound 186, hydrochloride]
4. CON=C(c1ccc(OC)cc1)c1cc(CC(=O)O)c(-c2ccc(Cl)cc2)s1
5. COc1ccc(C(=O)c2cc(CC(=O)NC(=N)N)c(-c3ccc(Cl)cc3)s2)cc1.Cl [compound 185, hydrochloride]

Solution:
1: 21%; 2: 59%; 3: 69%; 4: 72%; 5: 54%
